# Tgt: CETP (Homo sapiens, UniProt P11597)
# Construct: The donor lipoprotein obtained above was added to plasma of healthy subject
# Sequence (P11597 18-493): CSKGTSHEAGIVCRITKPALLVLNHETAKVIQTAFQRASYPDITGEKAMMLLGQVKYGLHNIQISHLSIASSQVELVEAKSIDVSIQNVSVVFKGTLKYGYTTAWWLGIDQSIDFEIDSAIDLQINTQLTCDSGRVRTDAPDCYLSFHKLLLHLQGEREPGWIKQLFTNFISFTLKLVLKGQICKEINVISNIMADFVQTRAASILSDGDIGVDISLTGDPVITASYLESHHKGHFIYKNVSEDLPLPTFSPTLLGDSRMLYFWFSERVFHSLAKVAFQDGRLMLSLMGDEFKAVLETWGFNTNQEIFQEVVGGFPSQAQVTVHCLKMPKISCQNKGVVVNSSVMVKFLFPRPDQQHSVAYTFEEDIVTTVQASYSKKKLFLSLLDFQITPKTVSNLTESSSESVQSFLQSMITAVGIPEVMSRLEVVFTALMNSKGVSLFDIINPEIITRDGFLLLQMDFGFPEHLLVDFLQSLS
# Method summary: Inhibitory effect in vitro on CETP activity in total plasma
# Recorded conditions: plasma of healthy subject with [3H]CE-HDL3, 37° C., 4 hr; average values
Counter-ions that a name gives are not always drawn.
Label YES when IC50 is strictly below 400 nM; at or above that, label NO.

Input line: Determine if CC(C)CN(C[C@H]1CC[C@H](C(=O)O)CC1)c1ccc(OC(F)(F)F)cc1CN(Cc1cc(C(F)(F)F)cc(C(F)(F)F)c1)c1nnn(C)n1 [Example 122, hydrochloride] shows IC50 strictly lower than 400 nM.
Output line: YES

Input line: Determine if CCN(CCCCC(=O)O)c1cc2c(cc1CN(Cc1cc(C(F)(F)F)cc(C(F)(F)F)c1)c1nnn(C)n1)CCCC2 [Example 80, hydrochloride] shows IC50 strictly lower than 400 nM.
Output line: NO

Input line: Determine if `CCN(C[C@H]1CC[C@H](C(=O)O)CC1)c1cc2c(cc1CN(Cc1cc(C(F)(F)F)cc(C(F)(F)F)c1)c1noc(C)n1)CCC2` shows IC50 strictly lower than 400 nM.
Output line: NO

Input line: Determine if CCN(CC1CCCC1)c1cc2c(cc1CN(Cc1cc(C(F)(F)F)cc(C(F)(F)F)c1)c1cnn(C)c1)CCC2 [Example 28, hydrochloride] shows IC50 strictly lower than 400 nM.
Output line: NO

Input line: Determine if `CCN(CC1CCCC1)c1cc2c(cc1CN(Cc1cc(C(F)(F)F)cc(C(F)(F)F)c1)c1ncn(C)n1)CCC2` shows IC50 strictly lower than 400 nM.
Output line: YES

Input line: Determine if `CCN(CC1CCCC1)c1cc2c(cc1CN(Cc1cc(C#N)cc(C(F)(F)F)c1)c1nnn(C)n1)CCCC2` shows IC50 strictly lower than 400 nM.
Output line: YES

Input line: Determine if CCN(C[C@H]1CC[C@H](C(=O)O)CC1)c1cc2c(cc1CN(Cc1cc(C(F)(F)F)cc(C(F)(F)F)c1)c1ncn(C)n1)CCC2 [Example 59, hydrochloride] shows IC50 strictly lower than 400 nM.
Output line: NO

Input line: Determine if CCN(CCC(C)(C)CC(=O)O)c1cc2c(cc1CN(Cc1cc(C(F)(F)F)cc(C(F)(F)F)c1)c1noc(C)n1)CCC2 [Example 103, hydrochloride] shows IC50 strictly lower than 400 nM.
Output line: NO

Input line: Determine if CCN(C[C@H]1CC[C@H](C(=O)O)CC1)c1ccc(OC(F)(F)F)cc1CN(Cc1cc(Cl)cc(C(F)(F)F)c1)c1nnn(C)n1 [Example 131, hydrochloride] shows IC50 strictly lower than 400 nM.
Output line: YES

Input line: Determine if CCN(C[C@H]1CC[C@H](C(=O)O)CC1)c1cc2c(cc1CN(Cc1cc(C#N)cc(C(F)(F)F)c1)c1nnn(C)n1)CCC2 [Example 52, hydrochloride] shows IC50 strictly lower than 400 nM.
Output line: YES

Input line: Determine if CCCN(C[C@H]1CC[C@H](C(=O)O)CC1)c1ccc(OC(F)(F)F)cc1CN(Cc1cc(C(F)(F)F)cc(C(F)(F)F)c1)c1nnn(C)n1 [Example 121, hydrochloride] shows IC50 strictly lower than 400 nM.
Output line: YES

Input line: Determine if CCN(C[C@H]1CC[C@H](C(=O)O)CC1)c1cc2c(cc1CN(Cc1cc(C(F)(F)F)cc(C(F)(F)F)c1)c1nnn(C)n1)CCCC2 [Example 67, hydrochloride] shows IC50 strictly lower than 400 nM.
Output line: YES

Input line: Determine if CCN(C[C@H]1CC[C@H](C(=O)O)CC1)c1cc2c(cc1CN(Cc1cc(C(F)(F)F)cc(C(F)(F)F)c1)c1nnn(CC)n1)CCCC2 [Example 99, hydrochloride] shows IC50 strictly lower than 400 nM.
Output line: NO

Input line: Determine if CCN(CC1CCCC1)c1cc2c(cc1CN(Cc1cc(C(F)(F)F)cc(C(F)(F)F)c1)c1nnn(C)n1)CCC2 [Example 4, hydrochloride] shows IC50 strictly lower than 400 nM.
Output line: YES

Input line: Determine if CCN(CCCCC(=O)O)c1cc2c(cc1CN(Cc1cc(C(F)(F)F)cc(C(F)(F)F)c1)c1ccn(C)n1)CCC2.Cl [Example 41, hydrochloride] shows IC50 strictly lower than 400 nM.
Output line: NO

Input line: Determine if CCN(CCCCC(=O)O)c1cc2c(cc1CN(Cc1cc(C(F)(F)F)cc(C(F)(F)F)c1)c1ncn(C)n1)CCC2 [Example 58, hydrochloride] shows IC50 strictly lower than 400 nM.
Output line: NO

Input line: Determine if CCN(CCCCC(=O)OC)c1cc2c(cc1CN(Cc1cc(C#N)cc(C(F)(F)F)c1)c1ccn(C)n1)CCCC2 [Example 64, hydrochloride] shows IC50 strictly lower than 400 nM.
Output line: NO

Input line: Determine if CCN(CCCCC(=O)O)c1cc2c(cc1CN(Cc1cc(C(F)(F)F)cc(C(F)(F)F)c1)c1ncn(C)n1)CCCC2 [Example 76, hydrochloride] shows IC50 strictly lower than 400 nM.
Output line: YES

Input line: Determine if CCN(C[C@H]1CC[C@H](CC(=O)O)CC1)c1cc2c(cc1CN(Cc1cc(C(F)(F)F)cc(C(F)(F)F)c1)c1nnn(C)n1)OC(F)(F)C(F)(F)O2 [Example 137, hydrochloride] shows IC50 strictly lower than 400 nM.
Output line: YES

Input line: Determine if CCN(CC1CCCC1)c1ccc(C(F)(F)F)cc1CN(Cc1cc(C#N)cc(C(F)(F)F)c1)c1nnn(C)n1 [Example 34, hydrochloride] shows IC50 strictly lower than 400 nM.
Output line: YES

Input line: Determine if CCN(CCCCC(=O)O)c1cc2c(cc1CN(Cc1cc(C(F)(F)F)cc(C(F)(F)F)c1)c1ccn(C)n1)CCCC2 [Example 65, hydrochloride] shows IC50 strictly lower than 400 nM.
Output line: YES

Input line: Determine if CCN(C[C@H]1CC[C@H](C(=O)OC)CC1)c1cc2c(cc1CN(Cc1cc(C(F)(F)F)cc(C(F)(F)F)c1)c1ccn(C)n1)CCCC2 [Example 42, hydrochloride] shows IC50 strictly lower than 400 nM.
Output line: NO

Input line: Determine if CCN(CC1CCCC1)c1cc2c(cc1CN(Cc1cc(C(F)(F)F)cc(C(F)(F)F)c1)c1nnn(C)n1)CCC2 [Example 3] shows IC50 strictly lower than 400 nM.
Output line: YES

Input line: Determine if `CCN(CC1CCCC1)c1cc2c(cc1CN(Cc1cc(C(F)(F)F)cc(C(F)(F)F)c1)c1nnn(CC)n1)CCC2` shows IC50 strictly lower than 400 nM.
Output line: NO
